# system: binding of radiolabelled 8E11 to the CS protein of P. knowlesi
# protocolNotes: Inhibition radioimmunoassay: binding of radiolabelled monoclonal antibody 8E11 to P. knowlesi CS protein
# assayConditions: FIG. 1; read-out: Concentration giving about 50% inhibition of binding of radiolabelled 8E11 to the CS protein
pIC50: −log10 of the molar value.
property: pIC50

Problem: pIC50 for H-QAQGDGANAGQPQAQGDGANAGQP-NH2 [Peptide 1-24] ?
Solution: ~5.00

Numbers sourced from patent US4769235A.
